Where do these numbers come from? They come from patent US9453842B2.

Measured Absorbance at 405 nm by item
Target: HRP (Armoracia rusticana)
Sequence (P00433 31-338): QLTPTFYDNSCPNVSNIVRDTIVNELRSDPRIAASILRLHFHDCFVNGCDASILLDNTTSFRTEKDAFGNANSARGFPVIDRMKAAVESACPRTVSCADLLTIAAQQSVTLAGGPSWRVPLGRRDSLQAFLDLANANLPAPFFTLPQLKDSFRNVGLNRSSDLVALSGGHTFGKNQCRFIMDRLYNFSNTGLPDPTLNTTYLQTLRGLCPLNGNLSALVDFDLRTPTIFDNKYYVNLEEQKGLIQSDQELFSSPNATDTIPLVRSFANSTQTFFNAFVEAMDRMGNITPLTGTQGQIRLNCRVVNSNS
Assay: Inhibition of 1 mU of HRP activity using heavy metal salts and other compounds as stop reagents (ABTS, 96-well plate)
Conditions: Table 2b; 6 min; stop reagent added after 8 min incubation; higher concentration of Table 1; 1 mU HRP
Please reply with the value in numeric form only.

>>> reported("N#C[S-].[K+]")
1.179
>>> reported("[Cl][Ni][Cl] [(ix), Nickel (II) chloride]")
1.175
>>> reported("[F-].[Na+]")
1.176
>>> reported("[Na+].[Na+].[Na+].[O]=[V]([O-])([O-])[O-] [(vii), Sodium orthovanadate]")
1.173

[ask] Value lookup for Absorbance at 405 nm; key = NC(=O)C(=O)[O-].[Na+] [(xi), Sodium Oxamate]
[reply] 1.182

---

In this section we review reported Absorbance at 405 nm values for a set of molecules.
target: HRP (Armoracia rusticana, UniProt P00433); experiment: Inhibition of 1 mU of HRP activity using heavy metal salts and other compounds as stop reagents (ABTS, 96-well plate); details: Table 2b; 9 min; stop reagent added after 8 min; higher concentration of Table 1; 1 mU HRP

Worked examples follow.
>>> reported("NC(=O)C(=O)[O-].[Na+] [(xi), Sodium Oxamate]")
1.776
>>> reported("[Na+].[Na+].[Na+].[O]=[V]([O-])([O-])[O-] [(vii), Sodium orthovanadate]")
0.115
>>> reported("[Cl][Ni][Cl] [(ix), Nickel (II) chloride]")
2.241
>>> reported("N#C[S-].[K+]")
1.207

[ask] Using the record for [F-].[Na+] , report its Absorbance at 405 nm.
[reply] 1.343

---

molecular target: HRP (Armoracia rusticana); assay: Inhibition of 1 mU of HRP activity using heavy metal salts and other compounds as stop reagents (ABTS, 96-well plate); details: Table 2b; 15 min; stop reagent added after 8 min; higher concentration of Table 1; 1 mU HRP
Absorbance at 405 nm for assorted molecules
Could you keep your reply to the number by itself?

Examples from the recorded data:
>>> reported("[F-].[Na+]")
1.424
>>> reported("N#C[S-].[K+]")
1.290
>>> reported("NC(=O)C(=O)[O-].[Na+] [(xi), Sodium Oxamate]")
2.525
>>> reported("[Cl][Ni][Cl] [(ix), Nickel (II) chloride]")
2.999

Could you now look at the following molecule, please?
[ask] Item [Na+].[Na+].[Na+].[O]=[V]([O-])([O-])[O-] [(vii), Sodium orthovanadate] with HRP (Armoracia rusticana) - Absorbance at 405 nm?
[reply] 0.096

---

The entries below come with measured Absorbance at 405 nm values attached.
target: HRP (Armoracia rusticana); assay: Inhibition of 1 mU of HRP activity using heavy metal salts and other compounds as stop reagents (ABTS, 96-well plate); conditions: Table 2b; 180 min; stop reagent added after 8 min; higher concentration of Table 1; 1 mU HRP
Returns: the value as a bare number; no unit string appended.

>>> reported("N#C[S-].[K+] [(xii), KSCN]")
0.849
>>> reported("NC(=O)C(=O)[O-].[Na+] [(xi), Sodium Oxamate]")
2.865
>>> reported("[Na+].[Na+].[Na+].[O]=[V]([O-])([O-])[O-] [(vii), Sodium orthovanadate]")
0.100
>>> reported("[Cl][Ni][Cl] [(ix), Nickel (II) chloride]")
3.999

Then this compound:
[ask] Entry [F-].[Na+] [(viii), NaF] : reported Absorbance at 405 nm = ?
[reply] 2.107

---

target: HRP (Armoracia rusticana, UniProt P00433); assay: Inhibition of 1 mU of HRP activity using heavy metal salts and other compounds as stop reagents (ABTS, 96-well plate); details: Table 2b; 45 min; stop reagent added after 8 min; higher concentration of Table 1; 1 mU HRP
Reported Absorbance at 405 nm values follow for various compounds
# answer = number (no unit)

>>> reported("[Na+].[Na+].[Na+].[O]=[V]([O-])([O-])[O-] [(vii), Sodium orthovanadate]")
0.088
>>> reported("[F-].[Na+]")
1.721
>>> reported("NC(=O)C(=O)[O-].[Na+] [(xi), Sodium Oxamate]")
3.097
>>> reported("[Cl][Ni][Cl] [(ix), Nickel (II) chloride]")
3.999

[ask] Find Absorbance at 405 nm (HRP (Armoracia rusticana, UniProt P00433)) for the entry N#C[S-].[K+]
[reply] 1.086

---

Target: HRP (Armoracia rusticana, UniProt P00433)
Sequence (P00433 31-338): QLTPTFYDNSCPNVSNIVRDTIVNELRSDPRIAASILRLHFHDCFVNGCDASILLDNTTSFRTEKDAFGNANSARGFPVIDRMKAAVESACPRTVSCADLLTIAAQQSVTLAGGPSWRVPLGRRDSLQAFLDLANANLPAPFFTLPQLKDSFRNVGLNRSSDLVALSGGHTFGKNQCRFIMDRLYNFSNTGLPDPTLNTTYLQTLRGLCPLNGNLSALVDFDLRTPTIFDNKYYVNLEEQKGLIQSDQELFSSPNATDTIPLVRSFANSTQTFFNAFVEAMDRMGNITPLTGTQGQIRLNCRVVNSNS
Assay: Inhibition of 1 mU of HRP activity using heavy metal salts and other compounds as stop reagents (ABTS, 96-well plate)
Conditions: Table 2b; 60 min; stop reagent added after 8 min; higher concentration of Table 1; 1 mU HRP
Endpoint Name: Absorbance at 405 nm
Just the number.

>>> reported("NC(=O)C(=O)[O-].[Na+] [(xi), Sodium Oxamate]")
3.095
>>> reported("[Na+].[Na+].[Na+].[O]=[V]([O-])([O-])[O-] [(vii), Sodium orthovanadate]")
0.092
>>> reported("[Cl][Ni][Cl] [(ix), Nickel (II) chloride]")
3.715
>>> reported("N#C[S-].[K+]")
0.989

[ask] Could you tell me which Absorbance at 405 nm is on file for [F-].[Na+] ?
[reply] 1.818

---

biological target: HRP (Armoracia rusticana); assay: Inhibition of 1 mU of HRP activity using heavy metal salts and other compounds as stop reagents (ABTS, 96-well plate); conditions: Table 2b; 30 min; stop reagent added after 8 min; higher concentration of Table 1; 1 mU HRP
Rule for this label: Fulfilled means Absorbance at 405 nm is less than 3; Not fulfilled means Absorbance at 405 nm is at least 3.

[ask] Does the reported Absorbance at 405 nm of [Cl][Ni][Cl] [(ix), Nickel (II) chloride] stay below 3?
[reply] Not fulfilled

[ask] I wonder whether [Na+].[Na+].[Na+].[O]=[V]([O-])([O-])[O-] [(vii), Sodium orthovanadate] has Absorbance at 405 nm below 3. Can you tell?
[reply] Fulfilled

---

Target: HRP (Armoracia rusticana, UniProt P00433)
Sequence (P00433 31-338): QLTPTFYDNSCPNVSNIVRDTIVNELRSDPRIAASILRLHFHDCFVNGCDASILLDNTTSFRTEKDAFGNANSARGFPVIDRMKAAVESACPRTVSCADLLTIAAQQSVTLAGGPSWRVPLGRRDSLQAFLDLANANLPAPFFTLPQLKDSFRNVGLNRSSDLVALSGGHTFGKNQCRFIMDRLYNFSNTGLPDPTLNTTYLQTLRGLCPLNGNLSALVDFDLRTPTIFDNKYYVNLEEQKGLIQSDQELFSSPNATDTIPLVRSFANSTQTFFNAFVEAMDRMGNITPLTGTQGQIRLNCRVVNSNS
Assay: Inhibition of 1 mU of HRP activity using heavy metal salts and other compounds as stop reagents (ABTS, 96-well plate)
Conditions: Table 2b; 30 min; stop reagent added after 8 min; higher concentration of Table 1; 1 mU HRP
Endpoint Name: Absorbance at 405 nm

Here are 2 compounds together with their reported answers.
>>> reported("N#C[S-].[K+]")
1.201
>>> reported("[F-].[Na+]")
1.572

Switching to the query record.
[ask] Reported Absorbance at 405 nm for NC(=O)C(=O)[O-].[Na+] [(xi), Sodium Oxamate] : what is it?
[reply] 3.091
